# Assay: Quantitative High-Throughput drug screen in 47 multiple myeloma cell lines against the NCATS MIPE library collection: MOLP8_DSMZ cell viability assay (AID 1918977); also: potency is read from the fitted curve at half-maximal effect; nearly all actives have a fitted effect of over 45% in size
# Condition: MOLP8 myeloma viability, CellTiter-Glo ATP luminescence, 48 h; series mostly up to 45.8 µM
Inconclusive results are not listed. Active and inactive are the calls of the source. Calls follow the shape of the dose curve; as a rule, active = well fitted cell-killing curve with a large enough effect; inconclusive = small, poorly fitted or top-dose-only effect, or effect the other way; inactive = no such curve, though single readings can be large or run the other way.
Value Type: Potency

>>> experimental_result("Cc1coc2c1C(=O)C(=O)c1c-2ccc2c(C)cccc12")
"9.35 µM (active)"
>>> experimental_result("O=C(Nc1cc2cc[nH]c2cn1)c1ccccc1")
"3.72 µM (active)"
>>> experimental_result("C#C[C@]1(O)CC[C@@H]2[C@@H]3CCC4=CC(=O)CC[C@@H]4[C@H]3CC[C@@]21CC")
"23.5 µM (active)"
>>> experimental_result("COc1ccc(Nc2cc(-c3cnc(N)nc3)nc(N3CCOCC3)n2)cn1")
"0.833 µM (active)"
>>> experimental_result("N#Cc1ccc(COC[C@H]2O[C@@H](n3c(NCc4ccc(Cl)c(Cl)c4)nc4c(N)ncnc43)[C@@H](O)[C@@H]2O)cc1")
"16.6 µM (active)"

* * *

# Assay: Quantitative High-Throughput drug screen in 47 multiple myeloma cell lines against the NCATS MIPE library collection: U266_ATCC cell viability assay (AID 1919864); also: nearly all actives have a fitted effect of over 35% in size
# Condition: U266 myeloma viability, CellTiter-Glo ATP luminescence, 48 h; series mostly up to 45.8 µM
Inconclusive results are not listed. The source made the active and inactive calls. The call rests on the fitted dose curve; in most records, active means well fitted cell-killing curve with a large enough effect; inconclusive means small, poorly fitted or top-dose-only effect, or effect the other way; inactive means no such curve, though single readings can be large or run the other way.
Labels: active, inactive

>>> label_class("COc1ccc(S(=O)(=O)Nc2cccnc2Nc2ccc(O)cc2)cc1")
"active"
>>> label_class("N#Cc1ccc(COC[C@H]2O[C@@H](n3c(NCc4ccc(Cl)c(Cl)c4)nc4c(N)ncnc43)[C@@H](O)[C@@H]2O)cc1")
"active"
>>> label_class("O=C(O)[C@H](CC(=O)N1C[C@@H]2CCCC[C@H]2C1)Cc1ccccc1")
"inactive"
>>> label_class("NC(=O)Nc1sc(-c2ccc(F)cc2)cc1C(N)=O")
"active"
>>> label_class("Cn1cc(CNCC2CCN(c3ncc(C(=O)NO)cn3)CC2)c2ccccc21")
"active"
>>> label_class("CCNC(=O)Nc1ccc(-c2nc3c(c(N4CCOC[C@H]4C)n2)CCN(C2COC2)C3)cc1")
"active"
>>> label_class("NC[C@H]1O[C@H](O[C@H]2[C@@H](O)[C@@H](O[C@H]3O[C@H](CO)[C@@H](O)[C@H](N)[C@@H]3O)[C@H](N)C[C@@H]2N)[C@H](N)C[C@H]1O")
"inactive"
>>> label_class("C=C1C[C@@]2(O)O[C@@]3(C[C@H]2C(C)C)[C@H](C)CC[C@H]13")
"inactive"
>>> label_class("C[C@H]1[C@@H](OC(=O)CCC(=O)O)O[C@@H]2O[C@@]3(C)CC[C@@H]4[C@H](C)CC[C@@H]1[C@@]24OO3")
"active"
>>> label_class("CC(C)c1cc(C(C)C)c(CC(=O)NS(=O)(=O)Oc2c(C(C)C)cccc2C(C)C)c(C(C)C)c1")
"inactive"
>>> label_class("COC(=O)[C@@H]1CC2=CC(=O)CC[C@]2(C)[C@@]23O[C@@H]2C[C@@]2(C)[C@H](CC[C@@]24CCC(=O)O4)[C@@H]13")
"inactive"
>>> label_class("OCc1ccccc1O[C@@H]1O[C@H](CO)[C@H](O)[C@H](O)[C@H]1O")
"inactive"
>>> label_class("CC(=O)OC[C@@H]1O[C@@H](n2ccc(=O)[nH]c2=O)[C@H](OC(C)=O)[C@H]1OC(C)=O")
"inactive"
>>> label_class("Oc1ccc(-c2ccc(-c3cc(Nc4cccc(CNC5CC5)c4)n[nH]3)cc2)c(O)c1")
"active"
>>> label_class("Nc1cccc2c1C(=O)N(C1CCC(=O)NC1=O)C2=O (configuration not stated)")
"inactive"
>>> label_class("c1cncc(CN2CCC(n3ncc4c(N5CCOCC5)nc(-c5ccc6[nH]ccc6c5)nc43)CC2)c1")
"active"
>>> label_class("CCc1cc(C(C)=NOCc2ccc(C3CCCCC3)c(C(F)(F)F)c2)ccc1CN1CC(C(=O)O)C1")
"inactive"
